Molecular target: Heat shock factor protein 1 (Mus musculus, UniProt P38532)
Sequence (P38532 whole entry): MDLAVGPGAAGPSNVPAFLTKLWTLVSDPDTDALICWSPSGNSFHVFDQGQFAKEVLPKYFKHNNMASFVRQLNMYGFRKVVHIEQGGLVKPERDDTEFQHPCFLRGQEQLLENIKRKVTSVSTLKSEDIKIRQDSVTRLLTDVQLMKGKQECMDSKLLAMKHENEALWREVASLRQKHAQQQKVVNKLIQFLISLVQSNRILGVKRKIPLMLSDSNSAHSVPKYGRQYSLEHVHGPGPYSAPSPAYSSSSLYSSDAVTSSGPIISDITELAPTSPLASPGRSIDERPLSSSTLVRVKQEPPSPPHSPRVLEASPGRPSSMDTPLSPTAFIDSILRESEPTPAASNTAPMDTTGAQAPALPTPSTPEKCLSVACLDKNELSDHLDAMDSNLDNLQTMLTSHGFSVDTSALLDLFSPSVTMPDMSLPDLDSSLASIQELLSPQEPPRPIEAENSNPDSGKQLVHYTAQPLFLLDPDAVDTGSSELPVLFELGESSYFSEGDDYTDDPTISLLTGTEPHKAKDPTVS
Test: inhibition of MG132-induced HSE-luciferase signal, confirmation, cell-based, NIH3T3, luminescence, dose retest (AID 2382);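 also: NIH3T3 fibroblasts with HSF1-driven luciferase reporter stressed by proteasome inhibitor MG132; luminescence from HSF1-driven luciferase expression after 8 hours of MG132 stress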
Format: functional
Active and inactive are the calls of the source. Rule as the data show it: actives have a measured EC50 and inactives only a lower limit.
Assay metric: EC50

>  <Compound>
CCOC(=O)c1ccc(NC(=S)Nc2ccccc2N)cc1

>  <Test value>
> 195 µM (not active)

$$$$
>  <Compound>
COc1nnc(-c2ccc(C(=O)N3C[C@@H]4C[C@H](C3)c3cccc(=O)n3C4)cc2)c2ccccc12

>  <Test value>
> 195 µM (not active)

$$$$
>  <Compound>
COc1cc2c(cc1OC)C(C(=O)NC1CC1)C1c3ccccc3CCN1C2=O (stereo not given)

>  <Test value>
> 195 µM (not active)

$$$$
>  <Compound>
O=C(Nc1cccc(F)c1)c1cc(-c2ccco2)nc2ccccc12

>  <Test value>
> 195 µM (not active)

$$$$
>  <Compound>
CCc1ccccc1-n1c(SCC(=O)Nc2ccc3c(c2)OCCO3)nc2nncc-2c1O

>  <Test value>
3.04 µM (active)

$$$$
